Values compiled from patent US11578055B2.

System: full length IL-2 (amino acids 1-153) fused to Gaussia Luciferase
Assay: Dox Induced IL2-FL-Gluc Assay
Type: cell-based
Conditions: 24 hr, Dox inducible, 293FRT/TO cells; read-out: 24 hr Dox Inducible IL2FLGluc 293FRT/TO: Mean IC50
pIC50: −log10 of the molar value.
measured endpoint: pIC50

Before answering, review these 5 worked examples.
test_smiles=Cc1ccc(CN2CCCN(S(=O)(=O)c3ccc(N(C)C)cc3)C[C@H](C)CN(S(=O)(=O)N3CCc4cc(Cl)ccc4C3)CCC2)cc1 value_reported=6.37
test_smiles=C[C@H]1CN(S(=O)(=O)c2ccc(N(C)C)cc2)CCCN(CC(F)(F)F)CCCN(S(=O)(=O)N2CCc3cc(Cl)ccc3C2)C1 value_reported=6.38
test_smiles=CC(C)CN1CCCN(S(=O)(=O)c2ccc(N(C)C)cc2)C[C@H](C)CN(S(=O)(=O)N2CCc3cc(Cl)ccc3C2)CCC1 value_reported=6.76
test_smiles=C[C@H]1CN(S(=O)(=O)c2ccc(N(C)C)cc2)CCCN([C@H](C)C2CCCCC2)CCCN(S(=O)(=O)N2CCc3cc(Cl)ccc3C2)C1 value_reported=6.84
test_smiles=C[C@H]1CN(S(=O)(=O)c2ccc(N(C)C)cc2)CCCN(CCC2CC2)CCCN(S(=O)(=O)N2CCc3cc(Cl)ccc3C2)C1 value_reported=6.87

I: C[C@H]1CN(S(=O)(=O)c2ccc(N(C)C)cc2)CCCN(CC2CCCCC2)CCCN(S(=O)(=O)N2CCN(C(=O)OC(C)(C)C)CC2)C1
II: C[C@H]1CCN(S(=O)(=O)N2CCc3cc(Cl)ccc3C2)CCCN(CC2CCCCC2)CCCN1S(=O)(=O)c1ccc(N(C)C)cc1
III: COc1cccc2c1CCN(S(=O)(=O)N1CCCN(CC3CCCCC3)CCCN(S(=O)(=O)c3ccc(N(C)C)cc3)C[C@H](C)C1)C2
IV: C[C@H]1CN(S(=O)(=O)c2ccc(N(C)C)cc2)CCCN(CC2CCC2)CCCN(S(=O)(=O)N2CCc3cc(Cl)ccc3C2)C1
Reorder: pIC50, max to min. Dear reader, please state the labels in the requested order. II, IV, III, I
(II: 7.38, IV: 7.17, III: 6.81, I: 5.90)

###

Test: In Vitro Microsome Stability Assay (rat)
Assay type: in vitro ADME
Conditions: rat liver microsomes, 30 min w/ NADPH
Procedure: Potassium phosphate (423 μL of a 0.1 M solution) was added to 8-strip deep well tubes followed by human, mouse, rat, or monkey microsomes (25 μL of a 20 mg/mL solution). The tubes were then placed on ice and the test article (2 μL of a 0.25 mM solution in DMSO) was added. […] Liver microsome stability is assessed by the % remaining of compound at 30 min which is calculated using the following equation: [(AUCanalyteT=30/AUCIS)/(AUCanalyteT=0/AUCIS)]*100 […]
measured endpoint: Liver Microsome Stability-% Left after 30 min w/ NADPH (%) Rat

Before answering, review these 5 worked examples.
test_smiles=C[C@H]1CN(S(=O)(=O)c2ccc(N(C)C)cc2)CCCN(CC2CCCC2)CCCN(S(=O)(=O)N2CCc3cc(Cl)ccc3C2)C1 value_reported=32.2
test_smiles=COc1cc(F)ccc1C1CN(S(=O)(=O)N2CCCN(CC3CCCCC3)CCCN(S(=O)(=O)c3ccc(N(C)C)cc3)C[C@H](C)C2)C1 value_reported=29.2
test_smiles=Cc1ccccc1CN1CCCN(S(=O)(=O)c2ccc(N(C)C)cc2)C[C@H](C)CN(S(=O)(=O)N2CCc3cc(Cl)ccc3C2)CCC1 value_reported=87.3
test_smiles=Cc1cc(F)ccc1N1CCN(S(=O)(=O)N2CCCN(CC3CCCCC3)CCCN(S(=O)(=O)c3ccc(N(C)C)cc3)C[C@H](C)C2)CC1 value_reported=101.9
test_smiles=CC(=O)N(C)c1ccc(CNS(=O)(=O)N2CCCN(CC3CCCCC3)CCCN(S(=O)(=O)c3ccc(N(C)C)cc3)C[C@H](C)C2)cc1 value_reported=0.08

A: COc1c(N2CCN(S(=O)(=O)N3CCCN(CC4CCCCC4)CCCN(S(=O)(=O)c4ccc(N(C)C)cc4)C[C@H](C)C3)CC2)ccc(F)c1F
B: CN(C)c1ccc(S(=O)(=O)N2C/C=C\CN(S(=O)(=O)N3CCC(c4ccccc4)CC3)CCCN(CC3CCCCC3)CCC2)cc1
Hi there! Just curious which has the higher Liver Microsome Stability-% Left after 30 min w/ NADPH (%) Rat between A and B . Kindly state the label of the option you pick. A
(A: 44.4%, B: 23.8%)

A: C[C@@H]1CN(CC2CCCCC2)C[C@@H](C)CN(S(=O)(=O)N2CCc3cc(Cl)ccc3C2)C[C@@H](C)CN(S(=O)(=O)c2ccc(N(C)C)cc2)C1
B: C[C@H]1CN(S(=O)(=O)c2ccc(N(C)C)cc2)CCCN(C(=O)OCc2ccccc2)CCCN(S(=O)(=O)N2CCc3cc(Cl)ccc3C2)C1
Between A and B , which one shows the smaller Liver Microsome Stability-% Left after 30 min w/ NADPH (%) Rat number? Kindly state the label of the option you pick. B
(B: 36.5%, A: 57.9%)

I: C[C@H]1CN(S(=O)(=O)c2ccc(N(C)C)cc2)CCCN([C@@H](C)C2CCCCC2)CCCN(S(=O)(=O)N2CCc3cc(Cl)ccc3C2)C1
II: C[C@H]1CN(S(=O)(=O)c2ccc(N(C)C)cc2)CCCN(CC2CCCCC2)CCCN(S(=O)(=O)N2CCc3c(Cl)cccc3C2)C1
Hi there! Just curious which has the higher Liver Microsome Stability-% Left after 30 min w/ NADPH (%) Rat between I and II . Kindly state the label of the option you pick. I
(I: 85.3%, II: 22.0%)

A: COc1cc(F)cc(N2CCN(S(=O)(=O)N3CCCN(CC4CCCCC4)CCCN(S(=O)(=O)c4ccc(N(C)C)cc4)CC4(CC4)C3)C[C@H]2C)c1
B: CCc1ccc2c(c1)CCN(S(=O)(=O)N1CCCN(CC3CCCCC3)CCCN(S(=O)(=O)c3ccc(N(C)C)cc3)C[C@H](C)C1)C2
Between A and B , which one shows the smaller Liver Microsome Stability-% Left after 30 min w/ NADPH (%) Rat number? Kindly state the label of the option you pick. B

###

System: full length IL-2 (amino acids 1-153) fused to Gaussia Luciferase
Test: Dox Induced IL2-FL-Gluc Assay
Assay type: cell-based
Conditions: 24 hr, Dox inducible, 293FRT/TO cells; read-out: 24 hr Dox Inducible IL2FLGluc 293FRT/TO: Mean IC50
measured endpoint: IC50 (nM)

a: C[C@H]1CN(S(=O)(=O)c2ccc(N(C)C)cc2)CCCN([C@@H](C)c2ccccc2)CCCN(S(=O)(=O)N2CCc3ccccc3C2)C1 [A205]
b: COCCN1CCCN(S(=O)(=O)c2ccc(N(C)C)cc2)C[C@H](C)CN(S(=O)(=O)N2CCc3cc(Cl)ccc3C2)CCC1 [A140]
Between a and b , which one shows the smaller IC50 number? Kindly state the label of the option you pick. a
(a: 305 nM, b: 808 nM)

###

Assay: In Vitro Microsome Stability Assay (monkey)
Format: in vitro ADME
Conditions: monkey liver microsomes, 30 min w/ NADPH
measured endpoint: Liver Microsome Stability-% Left after 30 min w/ NADPH (%) Monkey

compound="C[C@H]1CN(S(=O)(=O)c2ccc(N(C)C)cc2)CCCN(CC2CCC(F)CC2)CCCN(S(=O)(=O)N2CCc3cc(Cl)ccc3C2)C1 (stereo partly drawn)" value_reported=49.7

A: COc1cccc([C@@H]2CCCN(S(=O)(=O)N3CCCN(CC4CCCCC4)CCCN(S(=O)(=O)c4ccc(N(C)C)cc4)C[C@H](C)C3)C2)c1
B: COc1cc(F)cc(N2[C@H](C)CN(S(=O)(=O)N3CCCN(CC4CCCCC4)CCCN(S(=O)(=O)c4ccc(N(C)C)cc4)C[C@H](C)C3)C[C@H]2C)c1
Between A and B , which one shows the smaller Liver Microsome Stability-% Left after 30 min w/ NADPH (%) Monkey number? Kindly state the label of the option you pick. A
(A: 45.7%, B: 73.9%)

###

Experiment: In Vitro Microsome Stability Assay (monkey)
Assay type: in vitro ADME
Conditions: monkey liver microsomes, 30 min w/ NADPH
Structures can show the parent of a compound that is named as a salt.
measured endpoint: Liver Microsome Stability-% Left after 30 min w/ NADPH (%) Monkey

molecule=C[C@H]1CCN(S(=O)(=O)c2ccc(N(C)C)cc2)CCCN(CC2CCCCC2)CCCN1S(=O)(=O)N1CCc2cc(Cl)ccc2C1 value_reported=0.99
molecule=C[C@H]1CN(S(=O)(=O)c2ccc(N(C)C)cc2)CCCN(CC2=CCCCC2)CCCN(S(=O)(=O)N2CCc3cc(Cl)ccc3C2)C1 value_reported=39.2

I: C=C1CN(S(=O)(=O)c2ccc(C)cc2)CCCN(CC2CCCCC2)CCC(C)N(S(=O)(=O)c2ccc(C)cc2)C1 (stereo not drawn) [B1, hydrochloride]
II: COc1cc(F)cc(N2CCN(S(=O)(=O)N3CCCN(CC4CCCCC4)CCCN(S(=O)(=O)c4ccc(N(C)C)cc4)C[C@H](C)C3)C[C@@H]2C)c1
Hi there! Just curious which has the higher Liver Microsome Stability-% Left after 30 min w/ NADPH (%) Monkey between I and II . Kindly state the label of the option you pick. II

P: C[C@H]1CN(S(=O)(=O)c2ccc(N(C)C)cc2)CCCN([C@H](C)C2CCCCC2)CCCN(S(=O)(=O)N2CCc3cc(Cl)ccc3C2)C1
Q: C[C@H]1CN(S(=O)(=O)c2ccc(N(C)C)cc2)CCCN(CC2CCCCC2)CCCN(S(=O)(=O)N2CCc3c(Cl)cccc3C2)C1
Between P and Q , which one shows the smaller Liver Microsome Stability-% Left after 30 min w/ NADPH (%) Monkey number? Kindly state the label of the option you pick. Q
